- System: Dihydroorotate dehydrogenase (Plasmodium falciparum)
- Sequence (Q54A96 whole entry): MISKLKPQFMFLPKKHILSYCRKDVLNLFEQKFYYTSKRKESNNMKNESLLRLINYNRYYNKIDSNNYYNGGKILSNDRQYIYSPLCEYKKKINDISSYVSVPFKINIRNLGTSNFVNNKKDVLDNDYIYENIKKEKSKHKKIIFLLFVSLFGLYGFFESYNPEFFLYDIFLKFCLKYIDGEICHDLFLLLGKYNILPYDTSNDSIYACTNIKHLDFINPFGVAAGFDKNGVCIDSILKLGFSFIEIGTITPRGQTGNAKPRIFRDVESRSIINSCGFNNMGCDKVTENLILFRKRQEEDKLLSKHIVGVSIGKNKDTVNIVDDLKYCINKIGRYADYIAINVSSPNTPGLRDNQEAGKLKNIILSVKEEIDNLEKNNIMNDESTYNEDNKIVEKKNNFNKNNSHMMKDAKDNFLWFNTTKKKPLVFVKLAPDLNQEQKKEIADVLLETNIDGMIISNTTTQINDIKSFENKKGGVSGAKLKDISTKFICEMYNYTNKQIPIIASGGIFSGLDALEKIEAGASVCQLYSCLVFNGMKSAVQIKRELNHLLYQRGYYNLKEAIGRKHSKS
- Method Summary: Inhibition of Plasmodium falciparum HIs6-tagged DHODH expressed in Escherichia coli DH5alpha using L-dihydroorotate as substrate by DCIP-based spectrophotometric analysis
Please note: IC50 exactly at 300 nM is class 0. Only values below 300 nM get class 1.

Entry Smiles: O=C(Nc1ccc(Cl)cc1)Nc1cccc2cccnc12
System: Dihydroorotate dehydrogenase (Plasmodium falciparum)
Discrete Label: class 0
//
Entry Smiles: Cc1ccc(NC(=O)/C(C#N)=C(\O)C2CC2)cc1
System: Dihydroorotate dehydrogenase (Plasmodium falciparum)
Discrete Label: class 0
//
Entry Smiles: Cc1c(C(=O)Nc2cc(Cl)cc(Cl)c2)cccc1[N+](=O)[O-]
System: Dihydroorotate dehydrogenase (Plasmodium falciparum)
Discrete Label: class 1
//
Entry Smiles: Cc1c(C(=O)Nc2ccc(F)c(F)c2)cccc1[N+](=O)[O-]
System: Dihydroorotate dehydrogenase (Plasmodium falciparum)
Discrete Label: class 1
//
Entry Smiles: COc1ccccc1NC(=O)Nc1cccc2ccccc12
System: Dihydroorotate dehydrogenase (Plasmodium falciparum)
Discrete Label: class 1
//
Entry Smiles: O=C(Nc1ccc(Cl)cc1Cl)c1ccc2ccccc2c1
System: Dihydroorotate dehydrogenase (Plasmodium falciparum)
Discrete Label: class 1
//
Entry Smiles: O=C(Nc1ccccc1C(F)(F)F)Nc1cccc2ccccc12
System: Dihydroorotate dehydrogenase (Plasmodium falciparum)
Discrete Label: class 1
//
Entry Smiles: N#C/C(C(=O)Nc1ccc(C#N)cc1)=C(/O)C1CC1
System: Dihydroorotate dehydrogenase (Plasmodium falciparum)
Discrete Label: class 0

Source listed as ChEMBL document CHEMBL3045219.
